- Tested on: Vero
- experimentDescription: Cytotoxicity against African green monkey Vero cells assessed as reduction in cell viability incubated for 72 hrs by MTS-PMS assay
- Type: cell-based
- setupConditions: Chlorocebus sabaeus
Threshold-based label: IC50 under 20 µg/mL gives 1, IC50 not under 20 µg/mL gives -1.

molecularString: Cc1cc(Cl)ccc1-c1ccc(CN2CCc3c(C)ccc(N4CCN(C)CC4)c3C2)nc1
assaySystem: Vero
qualitativeLabel: 1

molecularString: COc1ccc(N2CCN(C)CC2)c2c1CCN(c1ccc(-c3cc(C(F)(F)F)cc(C(F)(F)F)c3)cn1)C2
assaySystem: Vero
qualitativeLabel: 1

molecularString: Cc1ccc(N2CCN(C)CC2)c2c1CCN(c1ccc(-c3ccc(C(C)(C)C)cc3)cn1)C2
assaySystem: Vero
qualitativeLabel: 1

molecularString: COc1ccc(N2CCN(C)CC2)c2c1CCN(Cc1ccc(-c3ccc(Cl)cc3C)cn1)C2
assaySystem: Vero
qualitativeLabel: 1

molecularString: Cc1cc(Cl)ccc1-c1ccc(N2CCc3c(C)ccc(N4CCN(C)CC4)c3C2)nc1
assaySystem: Vero
qualitativeLabel: -1
